procedureText: Drug concentration in wild type C57BL6 mouse brain at 2 mg/kg, ip thrice a week for 2 weeks observed after 4 hrs post last dose by HPLC/MS/MS analysis
conditionParameters: in vivo
metric: concentration at 336 h

COc1cc2c(cc1OC)C(=O)C(CC1CCN(Cc3ccccc3)CC1)C2 (stereo unspecified) [DONEPEZIL]	6130 ng/g

* * *

procedureText: Drug concentration in wild type C57BL6 mouse plasma at 2 mg/kg, ip thrice a week for 2 weeks observed after 4 hrs post last dose by HPLC/MS/MS analysis
conditionParameters: plasma
metric: concentration at 336 h (ng/mL)

COc1cc(CNC(=O)Cc2cn(CCCCC3=CC4Cc5nc6cc(Cl)ccc6c(N)c5C(C3)C4)nn2)ccc1O (configuration not stated)	35600

* * *

measuredOn: Acetylcholinesterase (Homo sapiens, UniProt P22303)
Sequence (P22303 whole entry): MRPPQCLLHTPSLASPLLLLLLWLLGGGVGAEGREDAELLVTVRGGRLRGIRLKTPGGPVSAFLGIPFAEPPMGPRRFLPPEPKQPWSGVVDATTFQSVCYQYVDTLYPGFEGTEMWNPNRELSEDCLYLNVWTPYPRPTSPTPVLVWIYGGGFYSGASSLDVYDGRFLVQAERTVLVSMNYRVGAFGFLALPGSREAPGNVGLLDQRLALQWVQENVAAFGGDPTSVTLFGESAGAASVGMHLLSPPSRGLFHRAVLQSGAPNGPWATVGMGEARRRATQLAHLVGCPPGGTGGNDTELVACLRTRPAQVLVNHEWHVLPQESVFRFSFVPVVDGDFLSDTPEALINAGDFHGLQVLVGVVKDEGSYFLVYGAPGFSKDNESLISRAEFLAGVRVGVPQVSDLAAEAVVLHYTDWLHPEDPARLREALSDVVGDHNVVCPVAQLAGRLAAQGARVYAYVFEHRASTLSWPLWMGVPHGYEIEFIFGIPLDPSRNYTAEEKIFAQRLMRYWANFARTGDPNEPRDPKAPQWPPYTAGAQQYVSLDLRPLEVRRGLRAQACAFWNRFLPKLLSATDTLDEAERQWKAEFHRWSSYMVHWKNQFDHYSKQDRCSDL
procedureText: Mixed-type inhibition of recombinant human AChE using varying concentration of acetylthiocholine iodide as substrate at 0.17 to 1.36 nM by Lineweaver-burk plot analysis
metric: Kd

COc1cc(CNC(=O)CCCCCCNc2c3c(nc4cc(Cl)ccc24)CC2C=C(C)CC3C2)ccc1O (stereo unspecified)	940 pM

* * *

# maps each entry to its pIC50
measuredOn: Acetylcholinesterase (Homo sapiens, UniProt P22303)
procedureText: Inhibition of recombinant human AChE using acetylthiocholineiodide as substrate preincubated for 20 mins followed by substrate addition by Ellman's method
pIC50: −log10 of the molar value.
metric: pIC50

COc1cc(CNC(=O)CCCCNc2c3c(nc4cc(Cl)ccc24)CC2C=C(C)CC3C2)ccc1O (stereo unspecified)	8.26
COc1cc(CNC(=O)Cc2cn(CCCCC3=CC4Cc5nc6cc(Cl)ccc6c(N)c5C(C3)C4)nn2)ccc1O (stereo unspecified)	8.97
COc1cc(CNC(=O)CCCC/C=C/CNc2c3c(nc4cc(Cl)ccc24)CC2C=C(C)CC3C2)ccc1O (stereo unspecified)	8.36
COc1cc(CNC(=O)CCCCCCCNc2c3c(nc4cc(Cl)ccc24)CC2C=C(C)CC3C2)ccc1O (stereo unspecified)	8.71
COc1cc(CNC(=O)CCCCCCCCNc2c3c(nc4cc(Cl)ccc24)CC2C=C(C)CC3C2)ccc1O (stereo unspecified)	8.53

* * *

measuredOn: Cholinesterase (Homo sapiens, UniProt P06276)
Sequence (P06276 whole entry): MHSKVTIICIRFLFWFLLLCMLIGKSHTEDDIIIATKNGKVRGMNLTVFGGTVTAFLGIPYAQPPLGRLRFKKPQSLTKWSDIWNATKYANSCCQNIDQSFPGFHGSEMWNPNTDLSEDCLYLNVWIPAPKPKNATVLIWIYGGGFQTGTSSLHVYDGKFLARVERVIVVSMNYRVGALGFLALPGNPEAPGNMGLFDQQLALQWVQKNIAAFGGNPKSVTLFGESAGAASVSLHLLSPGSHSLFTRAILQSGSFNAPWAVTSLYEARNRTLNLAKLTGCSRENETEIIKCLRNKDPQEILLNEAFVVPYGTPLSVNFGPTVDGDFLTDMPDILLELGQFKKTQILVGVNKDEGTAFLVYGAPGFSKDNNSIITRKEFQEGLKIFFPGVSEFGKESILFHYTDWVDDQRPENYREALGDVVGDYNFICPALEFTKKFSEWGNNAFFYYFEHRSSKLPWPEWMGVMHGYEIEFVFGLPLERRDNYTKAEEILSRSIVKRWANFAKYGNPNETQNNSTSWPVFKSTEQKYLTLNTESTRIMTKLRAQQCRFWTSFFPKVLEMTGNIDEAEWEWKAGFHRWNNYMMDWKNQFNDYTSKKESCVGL
procedureText: Inhibition of human serum BChE using butyrylthiocholineiodide as substrate preincubated for 20 mins followed by substrate addition by Ellman's method
// reported IC50 per item
metric: IC50 (nM)

COc1cc(CNC(=O)CCCC/C=C/CCCNc2c3c(nc4cc(Cl)ccc24)CC2C=C(C)CC3C2)ccc1O (centres undefined)	53.1
COc1cc(CNC(=O)CCCCCCNc2c3c(nc4cc(Cl)ccc24)CC2C=C(C)CC3C2)ccc1O (centres undefined)	30.6
COc1cc(CNC(=O)Cc2cn(CCCCC3=CC4Cc5nc6cc(Cl)ccc6c(N)c5C(C3)C4)nn2)ccc1O (centres undefined)	7.3
COc1cc(CNC(=O)CCCC/C=C/CNc2c3c(nc4cc(Cl)ccc24)CC2C=C(C)CC3C2)ccc1O (centres undefined)	78.1

* * *

procedureText: Drug concentration in wild type C57BL6 mouse plasma at 2 mg/kg, ip thrice a week for 2 weeks observed after 4 hrs post last dose by HPLC/MS/MS analysis
conditionParameters: in vivo
metric: concentration at 336 h (ng/mL)

COc1cc2c(cc1OC)C(=O)C(CC1CCN(Cc3ccccc3)CC1)C2 (stereo unspecified)	6460

Source listed as ChEMBL document CHEMBL4706642.
